Tested on: SNU-398 (Hepatocellular Carcinoma)
EXPERIMENTAL PROTOCOL: Bliss excess, mean over the matrix (fraction); higher = more synergy;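 also: after 72 h of two-drug dosing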
PROPERTY NAME: Bliss excess
Provide a numeric answer; units are not to be included.

Data point: CC1(C)CCC(CN2CCN(c3ccc(C(=O)NS(=O)(=O)c4ccc(NCC5CCOCC5)c([N+](=O)[O-])c4)c(Oc4cnc5[nH]ccc5c4)c3)CC2)=C(c2ccc(Cl)cc2)C1 [Venetoclax] + CN(C)CCCOc1ccc(-c2ccc3ncc4c(c3c2)n(C2CCOCC2)c(=O)n4C)cn1 [AZD0156] (first compound max 1 µM, 7x7, partner max 1 µM) ; Bliss excess = -0.0081

Data point: CC1(C)CCC(CN2CCN(c3ccc(C(=O)NS(=O)(=O)c4ccc(NCC5CCOCC5)c([N+](=O)[O-])c4)c(Oc4cnc5[nH]ccc5c4)c3)CC2)=C(c2ccc(Cl)cc2)C1 [Venetoclax] + Cc1cc2ncnn2cc1Nc1ncc2c(n1)n(C1CCOCC1)c(=O)n2C [AZD7648] (first compound max 1 µM, 7x7, partner max 10 µM) ; Bliss excess = -0.0427

Data point: Cc1cc2ncnn2cc1Nc1ncc2c(n1)n(C1CCOCC1)c(=O)n2C [AZD7648] + CN(C)CCCOc1ccc(-c2ccc3ncc4c(c3c2)n(C2CCOCC2)c(=O)n4C)cn1 [AZD0156] (first compound max 10 µM, 7x7, partner max 1 µM) ; Bliss excess = -0.0273

Data point: COc1nnc2ccc(N3CCC(c4ccc(OCCN5CCN(C)C(=O)[C@H]5C)cc4)CC3)nn12 [AZD5153] + C[C@@H]1COCCN1C2=NC(=NC(=C2)C3(CC3)[S@](=N)(=O)C)C4=C5C=CNC5=NC=C4 [AZD6738] (first compound max 1 µM, 7x7, partner max 10 µM) ; Bliss excess = 0.0758

Data point: CN(CCO)CC[C@H](CSc1ccccc1)Nc1ccc(S(=O)(=O)NC(=O)c2ccc(N3CCC([C@@H](O)c4ccccc4-c4ccc(Cl)cc4)CC3)cc2)cc1S(=O)(=O)C(F)(F)F [AZD4320] + Cn1cnc2c(F)c(Nc3ccc(Br)cc3Cl)c(C(=O)NOCCO)cc21 [Selumetinib] (first compound max 1 µM, 7x7, partner max 3 µM) ; Bliss excess = 0.0783

Data point: CN(CCO)CC[C@H](CSc1ccccc1)Nc1ccc(S(=O)(=O)NC(=O)c2ccc(N3CCC([C@@H](O)c4ccccc4-c4ccc(Cl)cc4)CC3)cc2)cc1S(=O)(=O)C(F)(F)F [AZD4320] + CN(C)CCCOc1ccc(-c2ccc3ncc4c(c3c2)n(C2CCOCC2)c(=O)n4C)cn1 [AZD0156] (first compound max 1 µM, 7x7, partner max 1 µM) ; Bliss excess = -0.0009

Data point: COc1nnc2ccc(N3CCC(c4ccc(OCCN5CCN(C)C(=O)[C@H]5C)cc4)CC3)nn12 [AZD5153] + C=CCn1c(=O)c2cnc(Nc3ccc(N4CCN(C)CC4)cc3)nc2n1-c1cccc(C(C)(C)O)n1 [AZD1775] (first compound max 1 µM, partner max 1 µM) ; Bliss excess = -0.0315

Data point: Cc1c2c(nn1C)CSCc1cc(n(C)n1)CSc1cc(c3ccccc3c1)OCCCc1c(C(=O)O)n(C)c3c-2c(Cl)ccc13 [AZD5991] + Cc1cc2ncnn2cc1Nc1ncc2c(n1)n(C1CCOCC1)c(=O)n2C [AZD7648] (first compound max 1 µM, 7x7, partner max 10 µM) ; Bliss excess = -0.0125

Data point: CC1(C)CCC(CN2CCN(c3ccc(C(=O)NS(=O)(=O)c4ccc(NCC5CCOCC5)c([N+](=O)[O-])c4)c(Oc4cnc5[nH]ccc5c4)c3)CC2)=C(c2ccc(Cl)cc2)C1 [Venetoclax] + C[C@@H](Nc1cc(F)cc(F)c1)c1cc(C(=O)N(C)C)cc2c(=O)cc(N3CCOCC3)oc12 [AZD8186] (first compound max 1 µM, 7x7, partner max 3 µM) ; Bliss excess = -0.0201

Data point: Cn1cnc2c(F)c(Nc3ccc(Br)cc3Cl)c(C(=O)NOCCO)cc21 [Selumetinib] + CCN(CCO)CCCOc1ccc2c(Nc3cc(CC(=O)Nc4cccc(F)c4)[nH]n3)ncnc2c1 [AZD2811] (first compound max 10 µM, 7x7, partner max 1 µM) ; Bliss excess = 0.0026

Data point: CN(CCO)CC[C@H](CSc1ccccc1)Nc1ccc(S(=O)(=O)NC(=O)c2ccc(N3CCC([C@@H](O)c4ccccc4-c4ccc(Cl)cc4)CC3)cc2)cc1S(=O)(=O)C(F)(F)F [AZD4320] + C[C@@H]1COCCN1C2=NC(=NC(=C2)C3(CC3)[S@](=N)(=O)C)C4=C5C=CNC5=NC=C4 [AZD6738] (first compound max 1 µM, 7x7, partner max 10 µM) ; Bliss excess = -0.0452

Data point: COc1cc2ncnc(Nc3ccc(F)c(Cl)c3)c2cc1OCCCN1CCOCC1 [Gefitinib] + CC(C)n1c(=O)n(C)c2cnc3cc(F)c(-c4ccc(OCCCN5CCCCC5)nc4)cc3c21 [AZD1390] (first compound max 10 µM, 7x7, partner max 0.3 µM) ; Bliss excess = -0.0627

---

Give Bliss excess for every item shown.
Tested on: RD (Rhabdomyosarcoma)
EXPERIMENTAL PROTOCOL: Bliss excess, mean over the matrix (fraction); higher = more synergy
Provide a numeric answer; units are not to be included.

Data point: Cc1c2c(nn1C)CSCc1cc(n(C)n1)CSc1cc(c3ccccc3c1)OCCCc1c(C(=O)O)n(C)c3c-2c(Cl)ccc13 [AZD5991] + C[C@@H](Nc1cc(F)cc(F)c1)c1cc(C(=O)N(C)C)cc2c(=O)cc(N3CCOCC3)oc12 [AZD8186] (first compound max 1 µM, 7x7, partner max 3 µM) ; Bliss excess = 0.0195

Data point: CN(C)CCCOc1ccc(-c2ccc3ncc4c(c3c2)n(C2CCOCC2)c(=O)n4C)cn1 [AZD0156] + C=CCn1c(=O)c2cnc(Nc3ccc(N4CCN(C)CC4)cc3)nc2n1-c1cccc(C(C)(C)O)n1 [AZD1775] (first compound max 1 µM, partner max 1 µM) ; Bliss excess = -0.0377

---

Tested on: RD (Rhabdomyosarcoma)
EXPERIMENTAL PROTOCOL: Bliss excess, mean over the matrix (fraction); higher = more synergy
PROPERTY NAME: Bliss excess
Provide a numeric answer; units are not to be included.

Data point: CN(CCO)CC[C@H](CSc1ccccc1)Nc1ccc(S(=O)(=O)NC(=O)c2ccc(N3CCC([C@@H](O)c4ccccc4-c4ccc(Cl)cc4)CC3)cc2)cc1S(=O)(=O)C(F)(F)F [AZD4320] + C1CN(CCC1(C(=O)N[C@@H](CCO)C2=CC=C(C=C2)Cl)N)C3=NC=NC4=C3C=CN4 [Capivasertib] (first compound max 1 µM, 7x7, partner max 3 µM) ; Bliss excess = -0.0764

Data point: COc1nnc2ccc(N3CCC(c4ccc(OCCN5CCN(C)C(=O)[C@H]5C)cc4)CC3)nn12 [AZD5153] + CCN(CCO)CCCOc1ccc2c(Nc3cc(CC(=O)Nc4cccc(F)c4)[nH]n3)ncnc2c1 [AZD2811] (first compound max 1 µM, 7x7, partner max 1 µM) ; Bliss excess = 0.0001

Data point: Cn1cnc2c(F)c(Nc3ccc(Br)cc3Cl)c(C(=O)NOCCO)cc21 [Selumetinib] + CC(C)n1c(=O)n(C)c2cnc3cc(F)c(-c4ccc(OCCCN5CCCCC5)nc4)cc3c21 [AZD1390] (first compound max 10 µM, 7x7, partner max 0.3 µM) ; Bliss excess = -0.0405

Data point: CN(C)CCCOc1ccc(-c2ccc3ncc4c(c3c2)n(C2CCOCC2)c(=O)n4C)cn1 [AZD0156] + CCN(CCO)CCCOc1ccc2c(Nc3cc(CC(=O)Nc4cccc(F)c4)[nH]n3)ncnc2c1 [AZD2811] (first compound max 1 µM, 7x7, partner max 1 µM) ; Bliss excess = -0.0374

---

Tested on: RPMI-8226 (Plasma Cell Myeloma)
EXPERIMENTAL PROTOCOL: Bliss excess, mean over the matrix (fraction); higher = more synergy
PROPERTY NAME: Bliss excess
Provide a numeric answer; units are not to be included.

Data point: COc1nnc2ccc(N3CCC(c4ccc(OCCN5CCN(C)C(=O)[C@H]5C)cc4)CC3)nn12 [AZD5153] + CN(CC[C@H](CSC1=CC=CC=C1)NC2=C(C=C(C=C2)S(=O)(=O)NC(=O)C3=CC=C(C=C3)N4CCC(CC4)[C@H](C5=CC=CC=C5C6=CC=C(C=C6)Cl)O)S(=O)(=O)C(F)(F)F)CCO [AZD4320] (first compound max 1 µM, 7x7, partner max 1 µM) ; Bliss excess = -0.0027

Data point: COc1nnc2ccc(N3CCC(c4ccc(OCCN5CCN(C)C(=O)[C@H]5C)cc4)CC3)nn12 [AZD5153] + CC1(C)CCC(CN2CCN(c3ccc(C(=O)NS(=O)(=O)c4ccc(NCC5CCOCC5)c([N+](=O)[O-])c4)c(Oc4cnc5[nH]ccc5c4)c3)CC2)=C(c2ccc(Cl)cc2)C1 [Venetoclax] (first compound max 1 µM, 7x7, partner max 1 µM) ; Bliss excess = -0.0035

Data point: CC(=O)Nc1cccc(-n2c(=O)n(C3CC3)c(=O)c3c(Nc4ccc(I)cc4F)n(C)c(=O)c(C)c32)c1 [Trametinib] + Cc1nc(-c2cn3c(n2)-c2ccc(-c4cnn(C(C)(C)C(N)=O)c4)cc2OCC3)n(C(C)C)n1 [Taselisib] (first compound max 1 µM, 7x7, partner max 10 µM) ; Bliss excess = 0.25

Origin of values: the supplement of paper PMC11061612
